Reference source: PubChem BioAssay (NCI)

- Tested on: K-562 leukemia
- method-notes: NCI tumour cell line growth inhibition, 48 h
quantity-kind: GI50

Recorded results for 2 compounds are shown here.
CC(C)=C[C@@H]1C[C@H](C)[C@H]2CC[C@H](C)c3c(O)c(OC4OC(C)C(O)C(O)C4O)c(C)c1c32 (stereo partly drawn)
3.97 µM
O=C(Nc1cccc(-n2ccc3c(NC(=O)c4ccccc4)ncnc32)c1)Nc1ccc(Cl)c(C(F)(F)F)c1
1.61 µM

Go through the list and state GI50 for each entry.
1. CCCN1C(=O)/C(=C/c2ccc(SC(F)(F)F)cc2)SC1=Nc1ccc(OC)cc1
2. C=CCC(N[C@@H](CO)c1ccccc1)c1ccc2ccccc2n1 (stereo partly drawn)
3. [O]=[Sn]([CH]1CCCCC1)[CH]1CCCCC1

["23.1 µM", "36.2 µM", "0.117 µM"]

Would you be so kind as to report GI50 for each listed record?
1. CN(C)CCCN1c2ccccc2Sc2ccc(C(F)(F)F)cc21
2. COc1cc(-c2nc(-c3ccccc3)c(-c3ccccc3)[nH]2)cc(OC)c1O
3. O=c1c(I)c[nH]cc1I

2.03 µM
21 µM
> 100 µM
